- System: E. coli W3110
- Condition Label: CSV; full MH at pH 7.4
Where a SMILES comes first, the peptide text is derived from it. [ ]: non-standard residue; d: D form. Nleu = CC(C)CNCC(=O)O; Nlys = NCCCCNCC(=O)O
Readout Label: MIC E. coli W3110, full MH at pH 7.4

Query: Consider the molecule CC(C)C[C@H](NC(=O)[C@H](CC(C)C)NC(=O)[C@H](CC(C)C)NC(=O)[C@H](CCCCN)NC(=O)[C@H](CC(C)C)NC(=O)[C@H](CC(C)C)NC(=O)CN(CCCCN)C(=O)[C@H](CC(C)C)NC(=O)[C@H](CC(C)C)NC(=O)CN(CCCCN)C(=O)CNCCCCN)C(N)=O [EB6, kkLLkLLKLLL] (H-[Nlys][Nlys]LL[Nlys]LLKLLL-NH2) and give its recorded MIC E. coli W3110, full MH at pH 7.4.
Result: 2 ug/mL

Query: Let me know recorded MIC E. coli W3110, full MH at pH 7.4 for CC(C)C[C@H](NC(=O)[C@H](CC(C)C)NC(=O)[C@H](CC(C)C)NC(=O)CN(CCCCN)C(=O)[C@H](CC(C)C)NC(=O)[C@H](CC(C)C)NC(=O)CN(CCCCN)C(=O)[C@H](CC(C)C)NC(=O)[C@H](CC(C)C)NC(=O)CN(CCCCN)C(=O)CNCCCCN)C(N)=O [EB7, kkLLkLLkLLL] (H-[Nlys][Nlys]LL[Nlys]LL[Nlys]LLL-NH2) , thanks.
Result: 16 ug/mL

Query: Output MIC E. coli W3110, full MH at pH 7.4 of CC(C)C[C@H](NC(=O)CN(CC(C)C)C(=O)[C@H](CCCCN)NC(=O)CNCCCCN)C(=O)N(CCCCN)CC(=O)N[C@@H](CC(C)C)C(=O)N(CC(=O)N[C@@H](CCCCN)C(=O)N(CC(=O)N[C@@H](CC(C)C)C(=O)N(CC(N)=O)CC(C)C)CC(C)C)CC(C)C [EB10, kKlLkLlKlLl] (H-[Nlys]K[Nleu]L[Nlys]L[Nleu]K[Nleu]L[Nleu]-NH2)
Result: >32 ug/mL

---

Could you please report measured MIC P. aeruginosa ZEM-1A, […] MH at pH 8.5 for the items listed next?
- System: ZEM-1A (clinical MDR P. aeruginosa isolate)
- Condition Label: CSV; […] MH at pH 8.5
Where a SMILES comes first, the peptide text is derived from it. [ ]: non-standard residue; d: D form. Nleu = CC(C)CNCC(=O)O; Nlys = NCCCCNCC(=O)O
Output spec: scalar in ug/mL, unitless text.

Query: Dear colleague, please send me the reported MIC P. aeruginosa ZEM-1A, […] MH at pH 8.5 for CC(C)C[C@H](NC(=O)CN(CC(C)C)C(=O)[C@H](CC(C)C)NC(=O)CN(CCCCN)C(=O)[C@H](CC(C)C)NC(=O)CN(CC(C)C)C(=O)[C@H](CCCCN)NC(=O)CN(CC(C)C)C(=O)[C@H](CC(C)C)NC(=O)CN(CCCCN)C(=O)[C@@H](N)CCCCN)C(N)=O [EB9, KkLlKlLkLlL] (H-K[Nlys]L[Nleu]K[Nleu]L[Nlys]L[Nleu]L-NH2) when you can.
Result: 3

Query: Determine its reported MIC P. aeruginosa ZEM-1A, […] MH at pH 8.5: CC(C)C[C@H](NC(=O)[C@H](CC(C)C)NC(=O)[C@H](CC(C)C)NC(=O)[C@@H](CCCCN)NC(=O)[C@H](CC(C)C)NC(=O)[C@H](CC(C)C)NC(=O)[C@@H](CCCCN)NC(=O)[C@H](CC(C)C)NC(=O)[C@H](CC(C)C)NC(=O)[C@@H](CCCCN)NC(=O)[C@H](N)CCCCN)C(N)=O [ln69, kkLLkLLkLLL, reference compound] (H-[dK][dK]LL[dK]LL[dK]LLL-NH2)
Result: 2

Query: Give recorded MIC P. aeruginosa ZEM-1A, […] MH at pH 8.5. CC(C)C[C@H](NC(=O)[C@H](CC(C)C)NC(=O)[C@H](CC(C)C)NC(=O)[C@H](CCCCN)NC(=O)[C@H](CC(C)C)NC(=O)[C@H](CC(C)C)NC(=O)CN(CCCCN)C(=O)[C@H](CC(C)C)NC(=O)[C@H](CC(C)C)NC(=O)CN(CCCCN)C(=O)CNCCCCN)C(N)=O [EB6, kkLLkLLKLLL] (H-[Nlys][Nlys]LL[Nlys]LLKLLL-NH2)
Result: 3

Query: In one line, give reported MIC P. aeruginosa ZEM-1A, […] MH at pH 8.5 of the entry CC(C)CN(CC(N)=O)C(=O)CN(CC(C)C)C(=O)CN(CC(C)C)C(=O)CN(CCCCN)C(=O)CN(CC(C)C)C(=O)CN(CC(C)C)C(=O)CN(CCCCN)C(=O)CN(CC(C)C)C(=O)CN(CC(C)C)C(=O)CN(CCCCN)C(=O)CNCCCCN [EB11, kkllkllklll] (H-[Nlys][Nlys][Nleu][Nleu][Nlys][Nleu][Nleu][Nlys][Nleu][Nleu][Nleu]-NH2) .
Result: 3

---

- Tested on: ZEM9A (clinical MDR P. aeruginosa isolate)
- Condition Label: Table S3; […] MH at pH 8.5
Where a SMILES comes first, the peptide text is derived from it. [ ]: non-standard residue; d: D form. Nleu = CC(C)CNCC(=O)O; Nlys = NCCCCNCC(=O)O
Readout Label: MIC P. aeruginosa ZEM9A (µg/mL)
Express it in µg/mL; write the number only.

Query: // output MIC P. aeruginosa ZEM9A; input CC(C)C[C@H](NC(=O)[C@H](CC(C)C)NC(=O)[C@H](CC(C)C)NC(=O)[C@@H](CCCCN)NC(=O)[C@H](CC(C)C)NC(=O)[C@H](CC(C)C)NC(=O)[C@@H](CCCCN)NC(=O)[C@H](CC(C)C)NC(=O)[C@H](CC(C)C)NC(=O)[C@@H](CCCCN)NC(=O)[C@H](N)CCCCN)C(N)=O [ln69, kkLLkLLkLLL, reference compound] (H-[dK][dK]LL[dK]LL[dK]LLL-NH2) ; system ZEM9A (clinical MDR P. aeruginosa isolate)
Result: 2

Query: Please look at CC(C)C[C@H](NC(=O)CN(CC(C)C)C(=O)[C@H](CC(C)C)NC(=O)CN(CCCCN)C(=O)[C@H](CC(C)C)NC(=O)CN(CC(C)C)C(=O)[C@H](CCCCN)NC(=O)CN(CC(C)C)C(=O)[C@H](CC(C)C)NC(=O)CN(CCCCN)C(=O)[C@@H](N)CCCCN)C(N)=O [EB9, KkLlKlLkLlL] (H-K[Nlys]L[Nleu]K[Nleu]L[Nlys]L[Nleu]L-NH2) and tell me its recorded MIC P. aeruginosa ZEM9A on ZEM9A (clinical MDR P. aeruginosa isolate).
Result: 2

Query: # assay system ZEM9A (clinical MDR P. aeruginosa isolate): give MIC P. aeruginosa ZEM9A of CC(C)C[C@H](NC(=O)[C@H](CC(C)C)NC(=O)[C@H](CC(C)C)NC(=O)[C@H](CCCCN)NC(=O)[C@H](CC(C)C)NC(=O)[C@H](CC(C)C)NC(=O)CN(CCCCN)C(=O)[C@H](CC(C)C)NC(=O)[C@H](CC(C)C)NC(=O)CN(CCCCN)C(=O)CNCCCCN)C(N)=O [EB6, kkLLkLLKLLL] (H-[Nlys][Nlys]LL[Nlys]LLKLLL-NH2)
Result: 2

---

What MIC P. aeruginosa PAO1 […] 7.4 was measured for each of the following?
- Test system: P. aeruginosa PAO1
- Condition Label: Table S2; […] MH, pH 7.4
Where a SMILES comes first, the peptide text is derived from it. [ ]: non-standard residue; d: D form. Nleu = CC(C)CNCC(=O)O; Nlys = NCCCCNCC(=O)O
Quick note: number first, unit second.

Query: Identify MIC P. aeruginosa PAO1 […] 7.4 associated with the compound CC(C)C[C@H](NC(=O)[C@H](CC(C)C)NC(=O)[C@H](CCCCN)NC(=O)[C@@H](N)CCCCN)C(=O)N[C@@H](CCCCN)C(=O)N[C@@H](CC(C)C)C(=O)N[C@@H](CC(C)C)C(=O)N[C@@H](CCCCN)C(=O)N(CC(=O)N(CC(=O)N(CC(N)=O)CC(C)C)CC(C)C)CC(C)C [EB3] (H-KKLLKLLK[Nleu][Nleu][Nleu]-NH2)
Result: 16 µg/mL

Query: State its MIC P. aeruginosa PAO1 […] 7.4: CC(C)C[C@H](NC(=O)[C@H](CC(C)C)NC(=O)[C@H](CC(C)C)NC(=O)[C@H](CCCCN)NC(=O)[C@H](CC(C)C)NC(=O)[C@H](CC(C)C)NC(=O)CN(CCCCN)C(=O)[C@H](CC(C)C)NC(=O)[C@H](CC(C)C)NC(=O)CN(CCCCN)C(=O)CNCCCCN)C(N)=O [EB6, kkLLkLLKLLL] (H-[Nlys][Nlys]LL[Nlys]LLKLLL-NH2)
Result: 2 µg/mL

Origin of values: paper PMC10714400
